System: CCRIS mutagenicity, Ames/micronucleus/aberration tests
Method: CCRIS mutagenicity studies
Recorded Conditions: Test System: AMES SALMONELLA TYPHIMURIUM; Strain/Indicator: TA1537; Metabolic Activation: NONE; Method: PREINCUBATION
Calls of active or inactive are those of the source. The rule behind the calls is not given here.
Outcome codes: active, inactive

compound=O=C(O)c1ccc2c(c1)C(=O)OC2=O tgt="CCRIS mutagenicity, Ames/micronucleus/aberration tests" cat=inactive
compound=Nc1cccc(Cl)c1 tgt="CCRIS mutagenicity, Ames/micronucleus/aberration tests" cat=inactive
compound=c1ccc(N(c2ccccc2)c2ccccc2)cc1 tgt="CCRIS mutagenicity, Ames/micronucleus/aberration tests" cat=inactive
compound=CCCCCCCCOP(=O)(OCCCCCCCC)OCCCCCCCC tgt="CCRIS mutagenicity, Ames/micronucleus/aberration tests" cat=inactive
compound=O=Cc1ccccc1 tgt="CCRIS mutagenicity, Ames/micronucleus/aberration tests" cat=inactive
compound=O=C1C=C(O)c2ccccc2C1=O tgt="CCRIS mutagenicity, Ames/micronucleus/aberration tests" cat=inactive
compound=CCOC(=O)CC(C)=O tgt="CCRIS mutagenicity, Ames/micronucleus/aberration tests" cat=inactive
compound="BrCC(Br)C1CCC(Br)C(Br)C1 (stereo not given)" tgt="CCRIS mutagenicity, Ames/micronucleus/aberration tests" cat=inactive
compound=C=C(C)C(=O)OCCCCCCCCCC tgt="CCRIS mutagenicity, Ames/micronucleus/aberration tests" cat=inactive
compound=CCN(CC)c1ccccc1 tgt="CCRIS mutagenicity, Ames/micronucleus/aberration tests" cat=inactive
compound=Cc1cc(N=Nc2c(O)ccc3ccccc23)c(S(=O)(=O)O)cc1Cl tgt="CCRIS mutagenicity, Ames/micronucleus/aberration tests" cat=inactive
compound=O=c1[nH]c(=O)n([C@H]2C[C@H](O)[C@@H](CO)O2)cc1/C=C/Br tgt="CCRIS mutagenicity, Ames/micronucleus/aberration tests" cat=inactive
compound=CC(C)[N+](C)(CCOC(=O)C1c2ccccc2Oc2ccccc21)C(C)C tgt="CCRIS mutagenicity, Ames/micronucleus/aberration tests" cat=inactive
compound="CC(Cl)CCCC(Cl)CCCC(Cl)CCCC(Cl)CCCC(Cl)CCCC(Cl)CCCl (stereo not given)" tgt="CCRIS mutagenicity, Ames/micronucleus/aberration tests" cat=inactive
compound=C[C@@H]1[C@H](O)[C@@H](C)/C=C/C=C/C=C/C=C/C=C/C=C/C=C/[C@H](O[C@@H]2O[C@H](C)[C@@H](O)[C@H](N)[C@@H]2O)C[C@@H]2O[C@](O)(C[C@@H](O)C[C@@H](O)[C@H](O)CC[C@@H](O)C[C@@H](O)CC(=O)O[C@H]1C)C[C@H](O)[C@H]2C(=O)O tgt="CCRIS mutagenicity, Ames/micronucleus/aberration tests" cat=inactive
compound=O=C1C=Cc2ccccc2C1=O tgt="CCRIS mutagenicity, Ames/micronucleus/aberration tests" cat=inactive
compound=CC(C)COC(=O)c1ccccc1N tgt="CCRIS mutagenicity, Ames/micronucleus/aberration tests" cat=inactive
compound=Cc1ccccc1S(N)(=O)=O tgt="CCRIS mutagenicity, Ames/micronucleus/aberration tests" cat=inactive
compound=C=C(C)C(=O)OCCN(C)C tgt="CCRIS mutagenicity, Ames/micronucleus/aberration tests" cat=inactive
compound=O=P(OCCCl)(OCCCl)OCCCl tgt="CCRIS mutagenicity, Ames/micronucleus/aberration tests" cat=inactive
compound=Cc1ccc(Cl)cc1 tgt="CCRIS mutagenicity, Ames/micronucleus/aberration tests" cat=inactive
compound=CCN tgt="CCRIS mutagenicity, Ames/micronucleus/aberration tests" cat=inactive
compound=CCOCCOC(C)=O tgt="CCRIS mutagenicity, Ames/micronucleus/aberration tests" cat=inactive
compound="CC(C#N)CCC#N (stereo not given)" tgt="CCRIS mutagenicity, Ames/micronucleus/aberration tests" cat=inactive
compound="CCCCCN(CCCOC)C(=O)C(CCC(=O)O)NC(=O)c1ccc(Cl)c(Cl)c1 (stereo not given)" tgt="CCRIS mutagenicity, Ames/micronucleus/aberration tests" cat=inactive
compound=COCCOC(C)=O tgt="CCRIS mutagenicity, Ames/micronucleus/aberration tests" cat=inactive
compound=C[C@H]1COc2c(N3CCN(C)CC3)c(F)cc3c(=O)c(C(=O)O)cn1c23 tgt="CCRIS mutagenicity, Ames/micronucleus/aberration tests" cat=inactive
compound=F tgt="CCRIS mutagenicity, Ames/micronucleus/aberration tests" cat=inactive
compound=CCOc1ccccc1[N+](=O)[O-] tgt="CCRIS mutagenicity, Ames/micronucleus/aberration tests" cat=inactive
compound=CCn1c2ccccc2c2cc(N)ccc21 tgt="CCRIS mutagenicity, Ames/micronucleus/aberration tests" cat=inactive
compound=O=C1C(Cl)=C(Cl)C(=O)c2ccccc21 tgt="CCRIS mutagenicity, Ames/micronucleus/aberration tests" cat=inactive
compound=Nn1c2ccccc2c2cnccc21 tgt="CCRIS mutagenicity, Ames/micronucleus/aberration tests" cat=active
compound=Cc1nc(N)nc(N)n1 tgt="CCRIS mutagenicity, Ames/micronucleus/aberration tests" cat=inactive
compound=B#B tgt="CCRIS mutagenicity, Ames/micronucleus/aberration tests" cat=inactive
compound=Cc1ccccn1 tgt="CCRIS mutagenicity, Ames/micronucleus/aberration tests" cat=inactive
compound=NC(N)=O tgt="CCRIS mutagenicity, Ames/micronucleus/aberration tests" cat=inactive
compound=O=[N+]([O-])CCO tgt="CCRIS mutagenicity, Ames/micronucleus/aberration tests" cat=inactive
compound="C=CC(C)C#N (stereo not given)" tgt="CCRIS mutagenicity, Ames/micronucleus/aberration tests" cat=inactive
compound=O=C(O)Cc1ccc(O)c(O)c1 tgt="CCRIS mutagenicity, Ames/micronucleus/aberration tests" cat=inactive
compound=C1CNCCN1 tgt="CCRIS mutagenicity, Ames/micronucleus/aberration tests" cat=inactive
compound=CCCCOC(=O)c1ccc(N)cc1 tgt="CCRIS mutagenicity, Ames/micronucleus/aberration tests" cat=inactive
compound=O=S(=O)(c1ccc(O)cc1)c1ccc(O)cc1 tgt="CCRIS mutagenicity, Ames/micronucleus/aberration tests" cat=inactive
compound=CCCCCCCCc1ccc(Nc2ccc(CCCCCCCC)cc2)cc1 tgt="CCRIS mutagenicity, Ames/micronucleus/aberration tests" cat=inactive
compound=CCOP(=O)(OCC)OCC tgt="CCRIS mutagenicity, Ames/micronucleus/aberration tests" cat=inactive
compound=O[C@H]([C@H](O)[C@@H](O)CBr)[C@H](O)CBr tgt="CCRIS mutagenicity, Ames/micronucleus/aberration tests" cat=inactive
compound=CCCCCC tgt="CCRIS mutagenicity, Ames/micronucleus/aberration tests" cat=inactive
compound=CCCCCCCCOC(=O)c1ccccc1C(=O)OCCCCCCCC tgt="CCRIS mutagenicity, Ames/micronucleus/aberration tests" cat=inactive
compound=CCCCCCCCCCCCS tgt="CCRIS mutagenicity, Ames/micronucleus/aberration tests" cat=inactive
compound=C=C1/C(=C\C=C2/CCC[C@]3(C)[C@@H]([C@H](C)/C=C/[C@@H](O)C4CC4)CC[C@@H]23)C[C@@H](O)C[C@@H]1O tgt="CCRIS mutagenicity, Ames/micronucleus/aberration tests" cat=inactive
compound=Cc1c(C)c2c(Cl)c3ccccc3nc2c2ccccc12 tgt="CCRIS mutagenicity, Ames/micronucleus/aberration tests" cat=active
compound=C[n+]1c2ccccc2cc2ccc(N)cc21 tgt="CCRIS mutagenicity, Ames/micronucleus/aberration tests" cat=active
compound="c1cc(OCC2CO2)cc(OCC2CO2)c1 (stereo not given)" tgt="CCRIS mutagenicity, Ames/micronucleus/aberration tests" cat=inactive
compound=CC(Cl)Cl tgt="CCRIS mutagenicity, Ames/micronucleus/aberration tests" cat=inactive
compound=Clc1cccc(Cl)c1Cl tgt="CCRIS mutagenicity, Ames/micronucleus/aberration tests" cat=inactive
compound=CCCCN tgt="CCRIS mutagenicity, Ames/micronucleus/aberration tests" cat=inactive
compound=NC(N)=S tgt="CCRIS mutagenicity, Ames/micronucleus/aberration tests" cat=inactive
compound=Oc1ccccc1 tgt="CCRIS mutagenicity, Ames/micronucleus/aberration tests" cat=inactive
compound=CN(C)C(=O)Nc1ccc(Cl)cc1 tgt="CCRIS mutagenicity, Ames/micronucleus/aberration tests" cat=inactive
compound=C=O tgt="CCRIS mutagenicity, Ames/micronucleus/aberration tests" cat=inactive
compound=C=C(C#N)C(=O)OC tgt="CCRIS mutagenicity, Ames/micronucleus/aberration tests" cat=inactive
